All values here come from PubChem BioAssay.

test: change in splice reporter luminescence, either direction, cell-based, HEK293, spliceosome inhibition project, primary screen (AID 1101); conditions: HEK293 splicing luciferase reporter, 24 h, higher = more signal, called active from +8 up or from −8 down;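 further: HEK293 cells carrying a splicing-competent luciferase reporter gene; test concentration not given here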
Rule: z-score of 0.2 or more gives 1; anything lower gives -1.

Some entries whose results are on file:
Task: Decide: is the reported value of z-score for CC(C)[Si](C#CCCCC#N)(Oc1ccccc1Br)C(C)C equal to or greater than 0.2?
Result: -1

Task: Decide: is the reported value of z-score for C=CCC(OC(C)=O)[C@@H]1[C@@H](N(Cc2cc3ccccc3o2)C(=O)Cc2ccc(OC)cc2)c2cc(OCCCO)ccc2N1C(=O)c1ccc2ccccc2c1 (some centres undefined) equal to or greater than 0.2?
Result: -1

Task: Decide: is the reported value of z-score for COC(=O)[C@@]1(Cc2ccc(OC)cc2)[C@H]2c3cc(C(=O)N(C)C)n(Cc4ccc(C(F)(F)F)nc4)c3C[C@H]2CN1C(=O)c1ccccc1 equal to or greater than 0.2?
Result: -1

Further cases:
Task: Decide: is the reported value of z-score for O=C1C2C=CC(C(O)c3ccc(-c4ccccc4)s3)N(Nc3ccccc3)C2C(=O)N1c1ccccc1 (centres undefined) equal to or greater than 0.2?
Result: 1

Task: Decide: is the reported value of z-score for CC(C)C(=C=CC[C@H](O)c1ccc(CO)o1)CCO equal to or greater than 0.2?
Result: 1
